The entries below come with measured protein stability index values attached.
system: Saccharomyces cerevisiae; test: protein stability index of tFT-peptide fusion (C-terminal peptide) (PSI (0-1 scale)); higher = more stable (slower turnover); conditions: genetic background: wild type; temperature: 30 C
Give only the figure.

Known results for sequences:
INSERT INTO assay_data (residue_sequence, target_system, value_measured) VALUES
  ('KASNGHIELIGE [CRF1 C-terminal 12 aa]', 'Saccharomyces cerevisiae', 0.699),
  ('ETPLLYNDTHTP [IES5 C-terminal 12 aa]', 'Saccharomyces cerevisiae', 0.695),
  ('IKYNWERCFNGE [YDR521W C-terminal 12 aa]', 'Saccharomyces cerevisiae', 0.697),
  ('LDDIEKDLRANA [SWI4 C-terminal 12 aa]', 'Saccharomyces cerevisiae', 0.679);

Which protein stability index value is on record for ESDHPTLADNSV [MRL1 C-terminal 12 aa] ?
0.691

Which protein stability index value is on record for RCSETKQQVMNS [BTT1 C-terminal 12 aa] ?
0.691

Which protein stability index value is on record for TDCGLETEEIDI [RAD14 C-terminal 12 aa] ?
0.682

Which protein stability index value is on record for SVPKPSQARFSV [UTR1 C-terminal 12 aa] ?
0.703

Which protein stability index value is on record for NKKRLSVDYILT [USV1 C-terminal 12 aa] ?
0.679

Which protein stability index value is on record for TIISKGYAKIRD [TAF4 C-terminal 12 aa] ?
0.7

Which protein stability index value is on record for NLGYSKDQVFKF [MCR1 C-terminal 12 aa] ?
0.688

----------
system: Saccharomyces cerevisiae; assay: protein stability index of tFT-peptide fusion (C-terminal peptide) (PSI (0-1 scale)); higher = more stable (slower turnover); settings: genetic background: wild type; temperature: 30 C
Measurement Name: protein stability index
Give only the figure.

INSERT INTO assay_data (residue_sequence, measurement_name, value_measured) VALUES
  ('LQAALVFPRSSL', 'protein stability index', 0.723),
  ('SYMWLVEVLLFI', 'protein stability index', 0.264),
  ('PGSLRGATRPNQ', 'protein stability index', 0.739),
  ('RSSSPLPLLSLL', 'protein stability index', 0.753);

Form: Entry = `ASAPPHVSAPSP` | System = Saccharomyces cerevisiae | protein stability index = ____
0.654

Form: Entry = `LLLLDPPLPPPP` | System = Saccharomyces cerevisiae | protein stability index = ____
0.684

Form: Entry = `CGCSLPGFCFLA` | System = Saccharomyces cerevisiae | protein stability index = ____
0.53

Form: Entry = `LPVPLAAFTTLH` | System = Saccharomyces cerevisiae | protein stability index = ____
0.711

Form: Entry = `LPRLPVSPLPLP` | System = Saccharomyces cerevisiae | protein stability index = ____
0.681

Form: Entry = `ECYKKFVCSCCT` | System = Saccharomyces cerevisiae | protein stability index = ____
0.515

Form: Entry = `AIMFLVLGYVFF` | System = Saccharomyces cerevisiae | protein stability index = ____
0.378

Form: Entry = `CTPVLLLRVLGN` | System = Saccharomyces cerevisiae | protein stability index = ____
0.58

Form: Entry = `AGLSVRSILLSI` | System = Saccharomyces cerevisiae | protein stability index = ____
0.599

Form: Entry = `FGVSFFSGVNGV` | System = Saccharomyces cerevisiae | protein stability index = ____
0.681

Form: Entry = `GERLVGGWHIWN` | System = Saccharomyces cerevisiae | protein stability index = ____
0.706

Form: Entry = `VSVGVCGYKVWG` | System = Saccharomyces cerevisiae | protein stability index = ____
0.709

Form: Entry = `RQEKITQHRARI` | System = Saccharomyces cerevisiae | protein stability index = ____
0.689

Form: Entry = `GPAAPAGNPETV` | System = Saccharomyces cerevisiae | protein stability index = ____
0.669

Form: Entry = `GGRGAGSDVGSL` | System = Saccharomyces cerevisiae | protein stability index = ____
0.677

Form: Entry = `RPPPHPPFPPRF` | System = Saccharomyces cerevisiae | protein stability index = ____
0.714

Form: Entry = `PWANRVCFLHMK` | System = Saccharomyces cerevisiae | protein stability index = ____
0.678

Form: Entry = `WWGGGGGMQGVR` | System = Saccharomyces cerevisiae | protein stability index = ____
0.674

Form: Entry = `KEDKLLRSSEGF` | System = Saccharomyces cerevisiae | protein stability index = ____
0.689
